All figures here come from patent US11420969B2.

molecular target: CYP2C19 (Homo sapiens); construct: from tissue; host or cells: human liver microsomes; experiment: CYP inhibition assay, human liver microsomes, substrate S-mephenytoin; format: in vitro ADME; conditions: human liver microsomes, 10 min incubation, LC-MS/MS; read-out: CYP Inhibition Activity (IC50/nM) CYP2C19
Sequence (P33261 whole entry): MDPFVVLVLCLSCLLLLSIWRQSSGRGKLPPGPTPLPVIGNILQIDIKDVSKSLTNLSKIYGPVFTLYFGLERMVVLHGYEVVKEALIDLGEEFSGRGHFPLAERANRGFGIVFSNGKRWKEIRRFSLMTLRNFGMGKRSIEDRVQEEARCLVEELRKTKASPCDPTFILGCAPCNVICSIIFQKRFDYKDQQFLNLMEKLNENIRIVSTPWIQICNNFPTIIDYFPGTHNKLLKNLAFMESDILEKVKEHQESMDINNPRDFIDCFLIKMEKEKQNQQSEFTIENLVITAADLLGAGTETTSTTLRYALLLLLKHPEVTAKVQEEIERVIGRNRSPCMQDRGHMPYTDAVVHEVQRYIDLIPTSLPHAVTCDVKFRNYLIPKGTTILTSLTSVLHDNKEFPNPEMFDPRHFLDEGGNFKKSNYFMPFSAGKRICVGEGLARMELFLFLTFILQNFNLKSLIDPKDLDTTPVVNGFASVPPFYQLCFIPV
observation-type: IC50 (nM)
Kindly provide the numeric value in nM only, without the unit symbol.

Task: Tell me reported IC50 for CN(C)C(=O)C1(C)CCN(c2ccc(Cl)cc2NC(=O)c2ccc(C3CCOCC3)o2)CC1 [Example 84] , tested with CYP2C19 (Homo sapiens).
Result: 8000

Task: Quick one: CC1(O)CCN(c2ccc(C3CC3)cc2NC(=O)c2ccc(C3CCOCC3)o2)C1 (racemic) [Example 59]
Result: 10500

Task: Quick one: O=C(Nc1cc(C(F)(F)F)ccc1N1CCN(Cc2cc[nH]n2)CC1)c1ccc(C2CCOCC2)o1 [Reference Example 3, reference compound]
Result: 610

Task: Quick one: Cc1ccc(N2CCC(C)(O)CC2)c(NC(=O)c2ccc(-c3ccncc3)o2)c1 [Example 8]
Result: 2900

Task: Quick one: C[C@]1(O)CCN(c2ccc(C(F)(F)F)cc2NC(=O)c2ccc(-c3ccncc3)o2)C1 [Example 53]
Result: 1190

----------
I'd be grateful if you could share measured IC50 for these entries.
biological target: CYP2C9 (Homo sapiens); construct: from tissue; host or cells: human liver microsomes; experiment: CYP inhibition assay, human liver microsomes, substrate diclofenac; format: in vitro ADME; settings: human liver microsomes, 10 min incubation, LC-MS/MS; read-out: CYP Inhibition Activity (IC50/nM) CYP2C9
Sequence (P11712 whole entry): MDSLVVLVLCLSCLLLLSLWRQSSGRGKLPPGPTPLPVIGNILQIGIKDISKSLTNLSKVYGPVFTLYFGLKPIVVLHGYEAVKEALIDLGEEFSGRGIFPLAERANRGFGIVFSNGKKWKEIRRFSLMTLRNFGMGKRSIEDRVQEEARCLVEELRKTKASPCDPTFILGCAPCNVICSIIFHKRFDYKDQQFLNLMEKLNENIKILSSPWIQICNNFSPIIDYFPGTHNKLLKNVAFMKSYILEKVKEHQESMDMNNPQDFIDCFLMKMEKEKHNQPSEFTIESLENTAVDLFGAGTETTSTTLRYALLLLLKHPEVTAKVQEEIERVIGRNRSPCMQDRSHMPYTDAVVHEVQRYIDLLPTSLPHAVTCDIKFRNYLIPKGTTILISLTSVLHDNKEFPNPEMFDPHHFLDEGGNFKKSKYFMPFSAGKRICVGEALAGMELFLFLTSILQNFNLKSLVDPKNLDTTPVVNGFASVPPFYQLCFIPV

Task: Look up IC50 for this compound: `CN1CCC2(CCN(c3ccc(C(F)(F)F)cc3NC(=O)c3ccc(C4CCOCC4)o3)CC2)C1`
Result: > 30000 nM

Task: Quick one: `CNCC1(C)CCN(c2ccc(C(F)(F)F)cc2NC(=O)c2ccc(C3CCOCC3)o2)CC1`
Result: > 30000 nM

Task: Quick one: `CC1(C)CCN(c2ccc(C(F)(F)F)cc2NC(=O)c2ccc(C3CCOCC3)o2)CC1`
Result: > 30000 nM

----------
biological target: SRPK1 (Homo sapiens, UniProt Q96SB4); experiment: In vitro SRPK1 assay (Kinase-Glo); assay type: biochemical
Sequence (Q96SB4 whole entry, species assumed): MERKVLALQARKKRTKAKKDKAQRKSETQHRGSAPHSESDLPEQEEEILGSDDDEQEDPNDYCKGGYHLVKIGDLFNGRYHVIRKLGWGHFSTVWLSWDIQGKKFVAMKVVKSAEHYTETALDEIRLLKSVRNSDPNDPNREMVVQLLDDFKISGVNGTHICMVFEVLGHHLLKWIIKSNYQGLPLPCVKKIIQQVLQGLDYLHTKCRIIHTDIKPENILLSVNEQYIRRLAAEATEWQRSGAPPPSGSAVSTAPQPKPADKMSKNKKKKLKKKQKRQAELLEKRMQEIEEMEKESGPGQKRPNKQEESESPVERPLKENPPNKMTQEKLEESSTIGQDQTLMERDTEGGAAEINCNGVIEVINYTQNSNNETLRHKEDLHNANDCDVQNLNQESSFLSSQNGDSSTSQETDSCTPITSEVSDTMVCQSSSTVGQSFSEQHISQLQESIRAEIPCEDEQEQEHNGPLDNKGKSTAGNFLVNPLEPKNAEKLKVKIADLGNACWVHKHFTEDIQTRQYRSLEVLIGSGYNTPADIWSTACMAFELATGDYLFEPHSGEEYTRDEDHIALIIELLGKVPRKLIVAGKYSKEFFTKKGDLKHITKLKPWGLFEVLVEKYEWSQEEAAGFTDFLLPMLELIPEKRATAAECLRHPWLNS
observation-type: log10 IC50 (log10 of the value in nM)
Response schema: value (number) is log10 of IC50 in units of nM.

Task: Look up log10 IC50 for this molecule: CC1CCN(c2ccc(C(F)(F)F)cc2NC(=O)c2ccc(C3CCOCC3)o2)CC1 [Example 35]
Result: 1.75

Task: Quick one: CN(C)C(=O)C1(C)CCN(c2ccc(Cl)cc2NC(=O)c2ccc(C3CCOCC3)o2)CC1 [Example 84]
Result: 1.36

Task: Quick one: Cc1ccc(N2CCC(C)(CN(C)C)CC2)c(NC(=O)c2ccc(C3CCOCC3)o2)c1 [Example 94]
Result: 2.22

Task: Quick one: CC1(O)CCN(c2ccc(C(F)F)cc2NC(=O)c2ccc(-c3ccncc3)o2)CC1 [Example 7]
Result: 0.23

Task: Quick one: CN(C)C(=O)C1(C)CCN(c2ccc(C(F)(F)F)cc2NC(=O)c2ccc(C3CCOCC3)o2)CC1 [Example 77]
Result: 0.20

Task: Quick one: CC1(C(=O)N2CCOCC2)CCN(c2ccc(C(F)(F)F)cc2NC(=O)c2ccc(C3CCOCC3)o2)CC1 [Example 90]
Result: 0.74

Task: Quick one: CC1(C(=O)N2CCCC2)CCN(c2ccc(C(F)(F)F)cc2NC(=O)c2ccc(C3CCOCC3)o2)CC1 [Example 88]
Result: 1.04

Task: Quick one: COc1ccc(N2CCC(C)(O)CC2)c(NC(=O)c2ccc(-c3ccncc3)o2)c1 [Example 9]
Result: 0.64

Task: Quick one: O=C(Nc1cc(C(F)(F)F)ccc1N1CCC(O)(c2ccccc2)CC1)c1ccc(C2CCOCC2)o1 [Example 22]
Result: 1.54

Task: Quick one: CC1(CO)CCN(c2ccc(C3CC3)cc2NC(=O)c2ccc(C3CCOCC3)o2)CC1 [Example 67]
Result: 0.61
